Kd by entry:
- studySystem: T1, Human PDGF-BB (human, UniProt P01127 82-190)
- T1 construct: Recombinant human PDGF-BB, a homodimer of two B chains; also called hPDGF-BB; huPDGF-BB
- T1 sequence (P01127 82-190 limits assumed): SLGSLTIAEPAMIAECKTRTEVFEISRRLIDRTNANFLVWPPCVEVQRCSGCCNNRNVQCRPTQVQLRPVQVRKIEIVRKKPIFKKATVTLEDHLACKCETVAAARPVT
- protocol: SPR (Biacore), antibody captured via anti-human Fc, antigen in solution

The examples below pair each entry with its known result.
>  <binder>
hBDI-5H1.11 (antibody, V domains shown, Humanized IgG) VH: EVQLVESGGGLVQPGGSLRLSCAFSGFSLSTFGMGVGWIRQAPGKGLEWLANIWWDDDKYYNPSLKNRLTISKDTSKNQAYLQINSLRAEDTAVYYCARISTGISSYYVMDAWGQGTLVTVSS VL: DFVLTQSPDSLAVSLGERATINCERSSGDIGDTYVSWYQQKPGQPPKNVIYGNDQRPSGVPDRFSGSGSGNSATLTISSLQAEDVAVYFCQSYDSDIDIVFGGGTKVEIK

>  <Kd>
≤ 0.37 nM

$$$$
>  <binder>
hBDI-9E8.10 (antibody, V domains shown, Humanized IgG) VH: EVTLRESGPALVKPTQTLTLTCTFSGFSLSTYGMGVGWIRQPPGKALEWLANIWWDDDKYYNPSLKNRLTISKDTSKNQAVLTITNMDPVDTATYYCARIESIGTTYSFDYWGQGTTVTVSS VL: DFQLTQSPSSLSASVGDRVTITCERSSGDIGDSYVSWYQQKPGKAPKNVIYADDQRPSGVPSRFSGSGSGNSASLTISSLQPEDFATYYCQSYDINIDIVFGQGTKVEIK

>  <Kd>
≤ 0.18 nM

$$$$
>  <binder>
hBDI-5H1.9 (antibody, V domains shown, Humanized IgG) VH: EVTLRESGPALVKPTQTLTLTCTFSGFSLSTFGMGVGWIRQPPGKALEWLANIWWDDDKYYNPSLKNRLTISKDTSKNQAVLTITNMDPVDTATYYCARISTGISSYYVMDAWGQGTTVTVSS VL: DFVLTQSPDSLAVSLGERATINCERSSGDIGDTYVSWYQQKPGQPPKNVIYGNDQRPSGVPDRFSGSGSGNSATLTISSLQAEDVAVYFCQSYDSDIDIVFGGGTKVEIK

>  <Kd>
≤ 0.31 nM

$$$$
>  <binder>
hBDI-9E8.5 (antibody, V domains shown, Humanized IgG) VH: EVTLRESGPALVKPTQTLTLTCTFSGFSLSTYGMGVGWIRQPPGKGLEWLANIWWDDDKYYNPSLKNRLTISKDTSKNQAVLTITNMDPVDTATYYCARIESIGTTYSFDYWGQGTMVTVSS VL: NFMLTQPHSVSESPGKTVTISCERSSGDIGDSYVSWYQQRPGSSPTTVIYADDQRPSGVPDRFSGSIDSSSNSASLTISGLKTEDEADYYCQSYDINIDIVFGGGTKLTVL

>  <Kd>
≤ 0.21 nM

$$$$

// next entry
According to the records, this binder hBDI-9E8.4 (antibody, V domains shown, Humanized IgG) VH: EVTLRESGPALVKPTQTLTLTCTFSGFSLSTYGMGVGWIRQPPGKALEWLANIWWDDDKYYNPSLKNRLTISKDTSKNQVVLTMTNMDPVDTATYYCARIESIGTTYSFDYWGQGTMVTVSS VL: EFVLTQSPGTLSLSPGERATLSCERSSGDIGDSYVSWYQQKPGQAPRLVIYADDQRPSGIPDRFSGSGSGTDFTLTISRLEPEDFAVYYCQSYDINIDIVFGGGTKVEIK displays Kd of ≤ 0.021 nM
